Origin of the recorded values: patent US11952330B2

Test system: S. aureus
Test: MIC by broth dilution, S. aureus
Type: cell-based
Settings: Staphylococcus aureus; Mueller-Hinton broth, overnight 37° C.; Table 1; read-out: MIC (μg/mL) S. aureus
Parameter MIC: see the listing below.
measurementType: MIC

compound=CCCCCCCCCOc1ccccc1C(=O)Nc1ccc(C(=O)OCC[N+](C)(CC)CC)cc1.[Br-] measurementtype=MIC readoutvalue="3 to 30 µg/mL"
compound="CCCCCCCOc1ccccc1C(=O)Nc1ccc(C(=O)NC2CC[N+](C)(CCC)CC2)cc1.[Br-] (stereo not shown)" measurementtype=MIC readoutvalue="3 to 30 µg/mL"
compound=CCCCCCCCOc1ccc(OCCCCCCCC)c(C(=O)Nc2ccc(C(=O)OCC[N+](C)(CC)CC)cc2)c1.[Br-] measurementtype=MIC readoutvalue="> 30 µg/mL"
compound="CC[N+](C)(CC)CCOC(=O)c1ccc(NC(=O)c2ccccc2OC2CCC(C)CC2)cc1.[Br-] (stereo not shown)" measurementtype=MIC readoutvalue="> 30 µg/mL"
